Overview of recorded DR/DR LNA for various molecules
# assayProcedure: Probe fluorescence ratio response to linolenic acid relative to ADIFAB2
# Type: binding
# conditionLabel: response relative to ADIFAB2

[
  {
    "molecule": "47A1, L72A (protein, listed as Rattus norvegicus, PEPTIDE (1)...(131) wild-type rat intestinal fatty acid binding protein) AFDGTWKVDRNENYEKFMEKMGINVVKRKLGAHDNLKLTITQEGNKATVKESSNFRNIDVVFELGVDFAYSAADGTELTGTWTMEGNKLVGKFKRVDNGKELIAVREISGNELIQTYTYEGVEAKRIFKKE",
    "DR/DR LNA": 0.57
  },
  {
    "molecule": "14L 72G 117I (protein, listed as Rattus norvegicus, PEPTIDE (1)...(131) wild-type rat intestinal fatty acid binding protein) AFDGTWKVDRNENLEKFMEKMGINVVKRKLGAHDNLKLTITQEGNKFTVKESSNFRNIDVVFELGVDFAYSGADGTELTGTWTMEGNKLVGKFKRVDNGKELIAVREISGNELIQTITYEGVEAKRIFKKE",
    "DR/DR LNA": 0.812
  }
]
